tested on: K98450-129-R-PDC multicell spheroids, viability; experiment: Anticancer human tumor K98450-129-R-PDC patient-derived colon adenocarcinoma cell line growth inhibition [PI3K]; details: second compound 0.01 µM; first compound 0.00316 µM; active compounds read low
Item-by-item account of viability, T/C
Expressed in %, but write only the number.

Known viability, T/C results, listed for orientation:
{"Molecule": "Cn1ncnc1[C@H]1c2n[nH]c(=O)c3cc(F)cc(c23)N[C@@H]1c1ccc(F)cc1 + COc1c(OCCCN2CCOCC2)ccc2c3n(c(=NC(=O)c4cnc(N)nc4)nc12)CCN3", "Assay system": "K98450-129-R-PDC multicell spheroids, viability", "viability, T/C [%]": 95.1}
{"Molecule": "CC(C)n1nc(-c2ccc3oc(N)nc3c2)c2c(N)ncnc21 + COc1c(OCCCN2CCOCC2)ccc2c3n(c(=NC(=O)c4cnc(N)nc4)nc12)CCN3", "Assay system": "K98450-129-R-PDC multicell spheroids, viability", "viability, T/C [%]": 96}
{"Molecule": "CCN1CCN(Cc2ccc(Nc3ncc(F)c(-c4cc(F)c5nc(C)n(C(C)C)c5c4)n3)nc2)CC1 + COc1c(OCCCN2CCOCC2)ccc2c3n(c(=NC(=O)c4cnc(N)nc4)nc12)CCN3", "Assay system": "K98450-129-R-PDC multicell spheroids, viability", "viability, T/C [%]": 117}
{"Molecule": "CCN1CCN(Cc2ccc(Nc3ncc(F)c(-c4cc(F)c5nc(C)n(C(C)C)c5c4)n3)nc2)CC1 + CC(Nc1ccc2c(c1)OCCn1cc(N3C(=O)OCC3C(F)F)nc1-2)C(N)=O", "Assay system": "K98450-129-R-PDC multicell spheroids, viability", "viability, T/C [%]": 117}

Just so you know, measured viability, T/C for Cn1ncnc1[C@H]1c2n[nH]c(=O)c3cc(F)cc(c23)N[C@@H]1c1ccc(F)cc1 + CC(Nc1ccc2c(c1)OCCn1cc(N3C(=O)OCC3C(F)F)nc1-2)C(N)=O came out at 99.2

Just so you know, measured viability, T/C for CC(C)n1nc(-c2ccc3oc(N)nc3c2)c2c(N)ncnc21 + CC(Nc1ccc2c(c1)OCCn1cc(N3C(=O)OCC3C(F)F)nc1-2)C(N)=O came out at 103

Just so you know, measured viability, T/C for CC(=O)c1c(C)c2cnc(Nc3ccc(N4CCNCC4)cn3)nc2n(C2CCCC2)c1=O + COc1c(OCCCN2CCOCC2)ccc2c3n(c(=NC(=O)c4cnc(N)nc4)nc12)CCN3 came out at 97.3

Just so you know, measured viability, T/C for CC(=O)c1c(C)c2cnc(Nc3ccc(N4CCNCC4)cn3)nc2n(C2CCCC2)c1=O + CC(Nc1ccc2c(c1)OCCn1cc(N3C(=O)OCC3C(F)F)nc1-2)C(N)=O came out at 104

###

Test system: K98450-129-R-PDC multicell spheroids, viability
Assay: Anticancer human tumor K98450-129-R-PDC cell line growth inhibition [PI3K];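 note: spheroids exposed to agents for seven days before read-out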
Conditions: second compound 0.01 µM; first compound 0.316 µM; active compounds read low
From the text: Combinatorial screen of targeted agents with the PI3K inhibitors inavolisib, alpelisib, duvelisib, and copanlisib in multi-cell type tumor spheroids A high-throughput screen of multi-cell type tumor spheroids was designed to identify active combinations of targeted small molecules and PI3K pathway inhibitors. […] Compounds. […] If the clinical Cmax for an agent had not been determined, the highest concentration tested was 10 microM. […]
Measured property: viability, T/C (%)
Expressed in %, but write only the number.

Known viability, T/C results, listed for orientation:
{"Molecule": "Cn1nccc1Nc1nccc(-c2ccn(C(CO)c3ccc(Cl)c(F)c3)c(=O)c2)n1 (stereo unspecified) + COc1c(OCCCN2CCOCC2)ccc2c3n(c(=NC(=O)c4cnc(N)nc4)nc12)CCN3", "Assay system": "K98450-129-R-PDC multicell spheroids, viability", "viability, T/C [%]": 79.7}
{"Molecule": "CC(C)NCC(C(=O)N1CCN(c2ncnc3c2C(C)CC3O)CC1)c1ccc(Cl)cc1 (stereo unspecified) + CC(Nc1ccc2c(c1)OCCn1cc(N3C(=O)OCC3C(F)F)nc1-2)C(N)=O", "Assay system": "K98450-129-R-PDC multicell spheroids, viability", "viability, T/C [%]": 105}

Just so you know, measured viability, T/C for CC(Cn1ccc(-c2ccc(C#N)c(Cl)c2)n1)NC(=O)c1cc(C(C)O)[nH]n1 (stereo unspecified) + COc1c(OCCCN2CCOCC2)ccc2c3n(c(=NC(=O)c4cnc(N)nc4)nc12)CCN3 came out at 105

Just so you know, measured viability, T/C for CCN1CCN(Cc2ccc(Nc3ncc(F)c(-c4cc(F)c5nc(C)n(C(C)C)c5c4)n3)nc2)CC1 + COc1c(OCCCN2CCOCC2)ccc2c3n(c(=NC(=O)c4cnc(N)nc4)nc12)CCN3 came out at 71.1

Just so you know, measured viability, T/C for CCCS(=O)(=O)Nc1ccc(F)c(C(=O)c2c[nH]c3ncc(-c4ccc(Cl)cc4)cc23)c1F + CC(Nc1ccc2c(c1)OCCn1cc(N3C(=O)OCC3C(F)F)nc1-2)C(N)=O came out at 114

Just so you know, measured viability, T/C for CC1(C)CCC(Nc2ncc(C(F)(F)F)c(-c3c[nH]c4c(P(C)(C)=O)c(C#N)ccc34)n2)CN1 (stereo unspecified) + COc1c(OCCCN2CCOCC2)ccc2c3n(c(=NC(=O)c4cnc(N)nc4)nc12)CCN3 came out at 67.3

Just so you know, measured viability, T/C for CC1(C)CCC(CN2CCN(c3ccc(C(=O)NS(=O)(=O)c4ccc(NCC5CCOCC5)c([N+](=O)[O-])c4)c(Oc4cnc5[nH]ccc5c4)c3)CC2)=C(c2ccc(Cl)cc2)C1 + CC(Nc1ccc2c(c1)OCCn1cc(N3C(=O)OCC3C(F)F)nc1-2)C(N)=O came out at 109

Just so you know, measured viability, T/C for CC1(C)CCC(CN2CCN(c3ccc(C(=O)NS(=O)(=O)c4ccc(NCC5CCOCC5)c([N+](=O)[O-])c4)c(Oc4cnc5[nH]ccc5c4)c3)CC2)=C(c2ccc(Cl)cc2)C1 + COc1c(OCCCN2CCOCC2)ccc2c3n(c(=NC(=O)c4cnc(N)nc4)nc12)CCN3 came out at 119

Just so you know, measured viability, T/C for Cn1ncc(Cl)c1-c1cc(C(=O)NC(CN)Cc2cccc(F)c2)sc1Cl (stereo unspecified) + COc1c(OCCCN2CCOCC2)ccc2c3n(c(=NC(=O)c4cnc(N)nc4)nc12)CCN3 came out at 103
